Each entry below carries its recorded CC50.
PROTOCOL NOTES: in vitro
RUN CONDITIONS: cat (Felis catus)
Structures can show the parent of a compound that is named as a salt.

Use the examples below as a reference point.
MOLECULE	CC50
CC[C@H]1CN2CCc3cc(OC)c(OC)cc3[C@@H]2C[C@@H]1C[C@H]1NCCc2cc(OC)c(OC)cc21 [Emetine]	0.03 µM
CC[C@H]1/C=C/C=C/C[C@@H](C)[C@H](O)[C@@](C)(O)C(=O)[C@@H](C)[C@H](O)[C@@H](C)C(=O)[C@@H](C)[C@H](O)[C@@H](C)/C=C/C(=O)O[C@@H]2[C@H](C)[C@H](CC1)O[C@]1(CC[C@H](C)[C@H](C[C@@H](C)O)O1)[C@H]2C [Oligomycin]	18.8 µM

Ask: Please look up its CC50: CC(C)[C@@H]1NC(=O)[C@H](C)OC(=O)[C@@H](C(C)C)NC(=O)[C@@H](C(C)C)OC(=O)[C@H](C(C)C)NC(=O)[C@H](C)OC(=O)[C@@H](C(C)C)NC(=O)[C@@H](C(C)C)OC(=O)[C@H](C(C)C)NC(=O)[C@H](C)OC(=O)[C@@H](C(C)C)NC(=O)[C@@H](C(C)C)OC1=O [Valinomycin]
Result: 3.98 µM

Ask: Next: CC(=O)Oc1ccccc1C(=O)Nc1ncc([N+](=O)[O-])s1 [Nitazoxanide]
Result: 4.69 µM

Ask: Same lookup for CCN(CC)CCOc1ccc2c(c1)C(=O)c1cc(OCCN(CC)CC)ccc1-2 [Tilorone (dihydrochloride), Tilorone] , please.
Result: 9.38 µM

Ask: Next: O=C(Nc1ccc([N+](=O)[O-])cc1Cl)c1cc(Cl)ccc1O [Niclosamide]
Result: 0.23 µM

Ask: Note, next up: CC[C@@H](C(=O)[C@@H](C)[C@@H](O)[C@H](C)[C@@H]1O[C@@H]([C@@H](CC)C(=O)O)CC[C@@H]1C)[C@H]1O[C@]2(C=C[C@@H](O)[C@]3(CC[C@@](C)([C@H]4CC[C@](O)(CC)[C@H](C)O4)O3)O2)[C@H](C)C[C@@H]1C [Salinomycin]
Result: 0.34 µM

Ask: What do you have for O=C1C(O)=C([C@H]2CC[C@H](c3ccc(Cl)cc3)CC2)C(=O)c2ccccc21 [Atovaquone] ?
Result: > 100 µM
